# Test system: PI(4)P liposomes
# ASSAY PROCEDURE: Yeast proteome chip probed with PI(4)P liposomes
# MEASUREMENT CONDITIONS: liposome binding signal on yeast proteome chip, Cy3-streptavidin detection
Measured PI(4)P, listed per entry for reference.
Give a plain numeric answer without units written out.

MOLECULE	PI(4)P
ERV1: yeast GST-HisX6 fusion protein on proteome chip (protein, UniProt P27882 1-189, looked up, GST-His6 tag, yeast GST-HisX6 fusion protein on proteome chip) Mitochondrial FAD-linked …: MKAIDKMTDNPPQEGLSGRKIIYDEDGKPCRSCNTLLDFQYVTGKISNGLKNLSSNGKLAGTGALTGEASELMPGSRTYRKVDPPDVEQLGRSSWTLLHSVAASYPAQPTDQQKGEMKQFLNIFSHIYPCNWCAKDFEKYIRENAPQVESREELGRWMCEAHNKVNKKLRKPKFDCNFWEKRWKDGWDE	−3.27

Here is another molecule to look at.
Short answer for MPD2: yeast GST-HisX6 fusion protein on proteome chip (protein, UniProt Q99316 23-277, looked up, GST-His6 tag, yeast GST-HisX6 fusion protein on proteome chip) Protein disulfide isomerase …: YSEAVTMVKSIEQYFDICNRNDSYTMIKYYTSWCQHCKTLAPVYEELGELYAKKANKDDTPINFLEVNCEFFGPTLCTDLPGFPIIELVKPRTKPLVLPKLDWSSMKFHERLWQRIKTWFNNPKYQLDTSRVVRFEGSRNLKSLSNFIDTVRSKDTEERFIEHIFDDSRNCNEELRSQQLLCKAGKEYYSDTLSKLYGDVNGLEKERRRLEALIKQNGDDLSKEVKEKLKIIRLQLSLLSHIEDQLEDTSSHDEL : PI(4)P was 37.45
